Ref: paper PMC5500991

T1/2 values for the compounds below.
experiment_description: In vivo plasma pharmacokinetics in mice
experimental_context: mouse plasma, 10 mg/kg i.p. in 20% hydroxypropyl-β-cyclodextrin

Take a look at these entries with their results.
* CN1Cc2cc(-c3ccc(-c4cncc(NS(=O)(=O)c5ccc(F)cc5F)c4)s3)ccc2C1=O [Compound 3] | 12.0 h
* CN1Cc2cc(-c3ccc(-c4cncc(NS(=O)(=O)c5ccc([N+](=O)[O-])cc5)c4)s3)ccc2C1=O [Compound 59] | 2.2 h
* CN1Cc2cc(-c3ccc(-c4cncc(NS(=O)(=O)c5c(F)cc(F)cc5F)c4)s3)ccc2C1=O [Compound 26] | 4.5 h

Now turn to the next compound.
Entry under test: CN1Cc2cc(-c3ccc(-c4cnc(Cl)c(NS(=O)(=O)c5ccc(F)cc5F)c4)s3)ccc2C1=O [Compound 11] . Its T1/2 was 9.5 h

====

solubility at 15 min values for the molecules below.
experiment_description: Solubility of the sodium salt in water
Assay type: physicochemical
experimental_context: sodium salt in water at room temperature
Give your result as the value with the unit written after it.

- CN1Cc2cc(-c3ccc(-c4cncc(NS(=O)(=O)c5c(F)cc(F)cc5F)c4)s3)ccc2C1=O: 10700 µg/mL
- CN1Cc2cc(-c3ccc(-c4cncc(NS(=O)(=O)c5ccccc5C(F)(F)F)c4)s3)ccc2C1=O: 88 µg/mL
- CN1Cc2cc(-c3ccc(-c4cnc(Cl)c(NS(=O)(=O)c5ccc(F)cc5F)c4)s3)ccc2C1=O: 4030 µg/mL

Now turn to the next molecule.
Entry under test: CN1Cc2cc(-c3ccc(-c4cncc(NS(=O)(=O)c5ccc(C#N)cc5)c4)s3)ccc2C1=O . Its solubility at 15 min was 12900 µg/mL

====

experiment_description: In vivo plasma pharmacokinetics in mice
experimental_context: mouse plasma, 10 mg/kg i.p. in 20% hydroxypropyl-β-cyclodextrin
Protocol: The in vivo PK parameters were measured for seven compounds selected on the basis of the in vitro assessment described above. Plasma pharmacokinetics were determined in male CD-1 mice for compounds 3, 10, 11, 26, 50, 58 and 59 (Table 6). […] A liquid chromatography with tandem mass spectrometry (LC-MS/MS) method was then developed and validated for quantitation of each analyte. […]
value_type: AUC0-∞ (µM·h)
Give the quantity in µM·h, number only.

- CN1Cc2cc(-c3ccc(-c4cncc(NS(=O)(=O)c5ccc(F)cc5F)c4)s3)ccc2C1=O [Compound 3]: 220
- CN1Cc2cc(-c3ccc(-c4cncc(NS(=O)(=O)c5ccc([N+](=O)[O-])cc5)c4)s3)ccc2C1=O [Compound 59]: 383
- CN1Cc2cc(-c3ccc(-c4cncc(NS(=O)(=O)c5ccccc5[N+](=O)[O-])c4)s3)ccc2C1=O [Compound 58]: 415
- CN1Cc2cc(-c3ccc(-c4cncc(NS(=O)(=O)c5ccc(C#N)cc5)c4)s3)ccc2C1=O [Compound 50]: 642
- CN1Cc2cc(-c3ccc(-c4cnc(F)c(NS(=O)(=O)c5ccc(F)cc5F)c4)s3)ccc2C1=O [Compound 10]: 2885

Entry under test: CN1Cc2cc(-c3ccc(-c4cnc(Cl)c(NS(=O)(=O)c5ccc(F)cc5F)c4)s3)ccc2C1=O [Compound 11] . Its AUC0-∞ was 2364

Entry under test: CN1Cc2cc(-c3ccc(-c4cncc(NS(=O)(=O)c5c(F)cc(F)cc5F)c4)s3)ccc2C1=O [Compound 26] . Its AUC0-∞ was 1019
